Tgt: human CB1 receptor (Homo sapiens)
Construct: expressed in transfected cells; host or cells: HEK293
Sequence (P21554 whole entry): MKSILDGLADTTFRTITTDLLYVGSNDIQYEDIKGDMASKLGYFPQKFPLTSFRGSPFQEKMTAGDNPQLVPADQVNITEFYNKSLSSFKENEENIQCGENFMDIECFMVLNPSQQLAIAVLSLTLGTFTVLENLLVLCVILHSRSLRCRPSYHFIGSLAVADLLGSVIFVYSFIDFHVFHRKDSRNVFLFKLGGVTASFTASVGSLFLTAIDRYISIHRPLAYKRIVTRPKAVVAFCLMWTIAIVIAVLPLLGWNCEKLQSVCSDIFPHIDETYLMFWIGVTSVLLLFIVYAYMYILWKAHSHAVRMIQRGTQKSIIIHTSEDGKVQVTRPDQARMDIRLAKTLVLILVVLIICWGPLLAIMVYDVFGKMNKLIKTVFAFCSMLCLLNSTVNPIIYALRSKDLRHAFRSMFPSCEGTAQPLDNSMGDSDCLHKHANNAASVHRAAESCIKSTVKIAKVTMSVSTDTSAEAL
Test name: bioSensAll GAPL-Gi2 BRET biosensor assay in transfected HEK293 cells, inhibition of CP-55,940 response
Format: cell-based
Measurement conditions: HEK293 cells transfected with hCB1 and GAPL-Gi2 biosensor, test compound then EC75 of CP-55,940 (0.1 nM), overnight incubation, read-out: CB1 wt Gi2 EC50
Field 'label' (enum: fulfilled / not fulfilled). Set to fulfilled when EC50 is strictly under 0.7 nM; else not fulfilled.

Example entries and their recorded answers appear below.
Molecule: CC(=O)NC(=N)/N=C(/NS(=O)(=O)c1ccc(C(F)(F)F)cn1)N1CCC(c2ccccc2)C(c2ccc(Cl)cc2)=N1 (single isomer, unassigned) [Compound 8 Isomer 2]
Tgt: human CB1 receptor (Homo sapiens)
Answer label: not fulfilled

Molecule: CC(=O)NC(N)=NC(=NS(=O)(=O)c1ccc(Cl)cc1)N1CCC(c2ccccc2)C(c2ccc(Cl)cc2)=N1 (single isomer, unassigned) [Compound 1 Isomer 2]
Tgt: human CB1 receptor (Homo sapiens)
Answer label: not fulfilled

Molecule: CC(=O)N/C(N)=N\C(=N\S(=O)(=O)c1ccc(C(F)(F)F)cc1)N1CCC(c2ccccc2)C(c2ccc(Cl)cc2)=N1 (single isomer, unassigned) [Compound 7 Isomer 2]
Tgt: human CB1 receptor (Homo sapiens)
Answer label: fulfilled

Molecule: CC(=O)N/C(N)=N/C(=N/S(=O)(=O)N1CCCC(F)(F)C1)N1CCC(c2ccccc2)C(c2ccc(Cl)cc2)=N1 (single isomer, unassigned) [Compound 5 Isomer 2]
Tgt: human CB1 receptor (Homo sapiens)
Answer label: fulfilled

Pending molecule:
[ask] I wonder whether CC(=O)N/C(N)=N/C(=N/S(=O)(=O)N1CCCC(F)(F)C1)N1CCC(c2ccccc2)C(c2ccc(Cl)cc2)=N1 (single isomer, unassigned) [Compound 5 Isomer 1] has EC50 below 0.7 nM. Can you tell?
[reply] not fulfilled
